# measurement notes: Influencing factor experiments (light, high temperature, high humidity, 30 days)
# Assay type: physicochemical
# assay context: RH 75%, 30 days
# Experimental: Crystal forms A, B, D and F of the compound of formula (I) were spread and left open to the air, and under conditions of high temperature (40° C. and 60° C.), light (4500 Lux), high humidity (RH 75% and RH 90%), the stability thereof were investigated for a period of 30 days.
experimental endpoint: % Weight gain (%)
Record the value in %, omitting the unit from your answer.

Worked set:
compound	display unit	% Weight gain
CCC(=O)c1ccc(Cl)cc1-c1cc(=O)n([C@@H](CCOC(C)(C)C)C(=O)Nc2ccc(C(=O)O)cc2)cc1OC [Crystal form F]	%	10.03
CCC(=O)c1ccc(Cl)cc1-c1cc(=O)n([C@@H](CCOC(C)(C)C)C(=O)Nc2ccc(C(=O)O)cc2)cc1OC [Crystal form B]	%	8.34
CCC(=O)c1ccc(Cl)cc1-c1cc(=O)n([C@@H](CCOC(C)(C)C)C(=O)Nc2ccc(C(=O)O)cc2)cc1OC [Crystal form A]	%	5.85

From here, focus on the item given below.
Exercise: Requested field: % Weight gain. Item: CCC(=O)c1ccc(Cl)cc1-c1cc(=O)n([C@@H](CCOC(C)(C)C)C(=O)Nc2ccc(C(=O)O)cc2)cc1OC [Crystal form D]
Key: 5.56

====

# measurement notes: DVS (dynamic vapor sorption) hygroscopicity characterization
# Type: physicochemical
# assay context: after DVS detection
experimental endpoint: crystal form before and after DVS detection (XRPD comparison)

molecule	result
CCC(=O)c1ccc(Cl)cc1-c1cc(=O)n([C@@H](CCOC(C)(C)C)C(=O)Nc2ccc(C(=O)O)cc2)cc1OC [Crystal form F]	unchanged
CCC(=O)c1ccc(Cl)cc1-c1cc(=O)n([C@@H](CCOC(C)(C)C)C(=O)Nc2ccc(C(=O)O)cc2)cc1OC [Crystal form A]	unchanged

====

// values below are reported % Purity
# measurement notes: Influencing factor experiments (light, high temperature, high humidity, 30 days)
# Format: physicochemical
# assay context: 40° C., 30 days
Number in %, nothing else.

Would you please look over these solved cases?
compound	% Purity [%]
CCC(=O)c1ccc(Cl)cc1-c1cc(=O)n([C@@H](CCOC(C)(C)C)C(=O)Nc2ccc(C(=O)O)cc2)cc1OC [Crystal form F]	99.57
CCC(=O)c1ccc(Cl)cc1-c1cc(=O)n([C@@H](CCOC(C)(C)C)C(=O)Nc2ccc(C(=O)O)cc2)cc1OC [Crystal form B]	98.57
CCC(=O)c1ccc(Cl)cc1-c1cc(=O)n([C@@H](CCOC(C)(C)C)C(=O)Nc2ccc(C(=O)O)cc2)cc1OC [Crystal form A]	98.48

Exercise: Give its % Purity value. Item: CCC(=O)c1ccc(Cl)cc1-c1cc(=O)n([C@@H](CCOC(C)(C)C)C(=O)Nc2ccc(C(=O)O)cc2)cc1OC [Crystal form D]
Key: 98.95

====

Overview of recorded % Weight gain for various molecules
# measurement notes: Influencing factor experiments (light, high temperature, high humidity, 30 days)
# Format: physicochemical
# assay context: RH 90%, 30 days
Please reply with the bare figure in % and do not write the unit itself.

molecule	display unit	readout number
CCC(=O)c1ccc(Cl)cc1-c1cc(=O)n([C@@H](CCOC(C)(C)C)C(=O)Nc2ccc(C(=O)O)cc2)cc1OC [Crystal form D]	%	9.53
CCC(=O)c1ccc(Cl)cc1-c1cc(=O)n([C@@H](CCOC(C)(C)C)C(=O)Nc2ccc(C(=O)O)cc2)cc1OC [Crystal form F]	%	12.83
CCC(=O)c1ccc(Cl)cc1-c1cc(=O)n([C@@H](CCOC(C)(C)C)C(=O)Nc2ccc(C(=O)O)cc2)cc1OC [Crystal form B]	%	19.11

Please examine the following record next.
Exercise: State the recorded % Weight gain for this entry: CCC(=O)c1ccc(Cl)cc1-c1cc(=O)n([C@@H](CCOC(C)(C)C)C(=O)Nc2ccc(C(=O)O)cc2)cc1OC [Crystal form A]
Key: 11.37

====

# measurement notes: DVS (dynamic vapor sorption) hygroscopicity characterization
# Format: physicochemical
# assay context: humidity change from 0% to 95%
experimental endpoint: desorption process and adsorption process of the sample

molecule	result
CCC(=O)c1ccc(Cl)cc1-c1cc(=O)n([C@@H](CCOC(C)(C)C)C(=O)Nc2ccc(C(=O)O)cc2)cc1OC [Crystal form B]	basically coincide
CCC(=O)c1ccc(Cl)cc1-c1cc(=O)n([C@@H](CCOC(C)(C)C)C(=O)Nc2ccc(C(=O)O)cc2)cc1OC [Crystal form A]	basically coincide
CCC(=O)c1ccc(Cl)cc1-c1cc(=O)n([C@@H](CCOC(C)(C)C)C(=O)Nc2ccc(C(=O)O)cc2)cc1OC [Crystal form F]	basically coincide

====

Catalogue of % Purity readings, one per entry.
# measurement notes: Influencing factor experiments (light, high temperature, high humidity, 30 days)
# Format: physicochemical
# assay context: RH 75%, 30 days
Give a bare numeral; the unit % is implied.

molecule	readout number
CCC(=O)c1ccc(Cl)cc1-c1cc(=O)n([C@@H](CCOC(C)(C)C)C(=O)Nc2ccc(C(=O)O)cc2)cc1OC [Crystal form B]	99.59

Exercise: Find the recorded % Purity belonging to CCC(=O)c1ccc(Cl)cc1-c1cc(=O)n([C@@H](CCOC(C)(C)C)C(=O)Nc2ccc(C(=O)O)cc2)cc1OC [Crystal form F] and report it.
Key: 99.62

Exercise: Any idea what its % Purity is? The molecule is CCC(=O)c1ccc(Cl)cc1-c1cc(=O)n([C@@H](CCOC(C)(C)C)C(=O)Nc2ccc(C(=O)O)cc2)cc1OC [Crystal form A]
Key: 98.76

Exercise: What value of % Purity has been recorded for this entry: CCC(=O)c1ccc(Cl)cc1-c1cc(=O)n([C@@H](CCOC(C)(C)C)C(=O)Nc2ccc(C(=O)O)cc2)cc1OC [Crystal form D]
Key: 99.55

====

# measurement notes: Influencing factor experiments (light, high temperature, high humidity, 30 days)
# Type: physicochemical
# assay context: RH 90%, 30 days
# Method: Crystal forms A, B, D and F of the compound of formula (I) were spread and left open to the air, and under conditions of high temperature (40° C. and 60° C.), light (4500 Lux), high humidity (RH 75% and RH 90%), the stability thereof were investigated for a period of 30 days.
Each record here notes measured % Purity.
Provide only the numeric value, understood in %.

See these solved cases before continuing.
molecule	% Purity (%)
CCC(=O)c1ccc(Cl)cc1-c1cc(=O)n([C@@H](CCOC(C)(C)C)C(=O)Nc2ccc(C(=O)O)cc2)cc1OC [Crystal form A]	98.76
CCC(=O)c1ccc(Cl)cc1-c1cc(=O)n([C@@H](CCOC(C)(C)C)C(=O)Nc2ccc(C(=O)O)cc2)cc1OC [Crystal form B]	99.56
CCC(=O)c1ccc(Cl)cc1-c1cc(=O)n([C@@H](CCOC(C)(C)C)C(=O)Nc2ccc(C(=O)O)cc2)cc1OC [Crystal form D]	99.55

// next item, % Purity requested
Exercise: # lookup: % Purity of CCC(=O)c1ccc(Cl)cc1-c1cc(=O)n([C@@H](CCOC(C)(C)C)C(=O)Nc2ccc(C(=O)O)cc2)cc1OC [Crystal form F]
Key: 99.65

====

# measurement notes: Influencing factor experiments (light, high temperature, high humidity, 30 days)
# Type: physicochemical
# assay context: 60° C., 30 days
experimental endpoint: % Purity
Remember to put the unit after the number in your answer.

Exercise: GET /values?readout=% Purity&item= CCC(=O)c1ccc(Cl)cc1-c1cc(=O)n([C@@H](CCOC(C)(C)C)C(=O)Nc2ccc(C(=O)O)cc2)cc1OC [Crystal form D]
Key: 99.09%

Exercise: Need % Purity, item CCC(=O)c1ccc(Cl)cc1-c1cc(=O)n([C@@H](CCOC(C)(C)C)C(=O)Nc2ccc(C(=O)O)cc2)cc1OC [Crystal form B]
Key: 98.60%

Exercise: % Purity lookup needed for CCC(=O)c1ccc(Cl)cc1-c1cc(=O)n([C@@H](CCOC(C)(C)C)C(=O)Nc2ccc(C(=O)O)cc2)cc1OC [Crystal form F] , thanks.
Key: 99.59%

Exercise: I'd like to know its % Purity. The compound in question is CCC(=O)c1ccc(Cl)cc1-c1cc(=O)n([C@@H](CCOC(C)(C)C)C(=O)Nc2ccc(C(=O)O)cc2)cc1OC [Crystal form A]
Key: 98.50%

====

# measurement notes: Influencing factor experiments (light, high temperature, high humidity, 30 days)
# Assay type: physicochemical
# assay context: 4500 Lux, 30 days
experimental endpoint: % Purity (%)
Reply numerically in %, unit not repeated.

compound	display unit	% Purity
CCC(=O)c1ccc(Cl)cc1-c1cc(=O)n([C@@H](CCOC(C)(C)C)C(=O)Nc2ccc(C(=O)O)cc2)cc1OC [Crystal form F]	%	99.64
CCC(=O)c1ccc(Cl)cc1-c1cc(=O)n([C@@H](CCOC(C)(C)C)C(=O)Nc2ccc(C(=O)O)cc2)cc1OC [Crystal form D]	%	99.26
CCC(=O)c1ccc(Cl)cc1-c1cc(=O)n([C@@H](CCOC(C)(C)C)C(=O)Nc2ccc(C(=O)O)cc2)cc1OC [Crystal form A]	%	98.75

Exercise: Which % Purity is listed for CCC(=O)c1ccc(Cl)cc1-c1cc(=O)n([C@@H](CCOC(C)(C)C)C(=O)Nc2ccc(C(=O)O)cc2)cc1OC [Crystal form B] ?
Key: 98.71
